assay remarks: PK analysis in rats
Type: in vivo, Sprague Dawley (SD) rats
assay conditions: Sprague-Dawley, rat, po, 5 mg/kg; SD rats, single intragastric administration, 5 mg/10 ml/kg, plasma
measure: half-life (h)

1) C=CC(=O)Nc1cc(Nc2nccc(-c3cn(C4CC4)c4ccccc34)n2)c(OC)cc1N(C)CCN(C)C: 2.3

---

Tested on: A431 cells
assay remarks: Inhibition of A431 cell proliferation (CellTiter-Glo)
Format: cell-based
assay conditions: Homo sapiens, A-431, 72 h, read-out: EGFR IC50 (nM) A431
Quick reference: IC50 of the listed items.
measure: IC50

1) C=CC(=O)Nc1cc(Nc2ncc(Cl)c(-n3ncc4cc(OC)ccc43)n2)c(OC)cc1N(C)CCN(C)C [Example 48]: 102 nM
2) C=CC(=O)Nc1cc(Nc2nccc(-n3nc(C4CC4)c4cc(OC)ccc43)n2)c(OC)cc1N(C)CCN(C)C [Example 113]: 233 nM
3) C=CC(=O)Nc1cc(Nc2nccc(-n3ncc4ccc(C#N)cc43)n2)c(OC)cc1N(C)CCN(C)C [Example 112]: 257 nM
4) C=CC(=O)Nc1cc(Nc2nccc(-n3ncc4ccc(OC)cc43)n2)c(OC)cc1N(C)CCN(C)C [Example 42]: 76.3 nM
5) C=CC(=O)Nc1cc(Nc2nccc(-c3cn(C)c4cc(C5CC5)ccc34)n2)c(OC)cc1N(C)CCN(C)C [Example 22]: 800 nM
6) C=CC(=O)Nc1cc(Nc2nccc(-c3c[nH]c4ccccc34)n2)c(OC(F)F)cc1N(C)CCN(C)C [Example 8]: 56.2 nM
7) C=CC(=O)Nc1cc(Nc2ncc(Cl)c(-c3cn(C)c4cc(OC)ccc34)n2)c(OC)cc1N(C)CCN(C)C [Example 98]: 154 nM
